Test system: primary rat microglia
measurement_protocol: Inhibition of microglia activation (Aβ-peptide-activated primary rat microglia, MTS reduction)
Assay type: cell-based
run_parameters: 168 h, test of Example 307, metabolic activity via MTS reduction on cultivation day 7, relative to DMSO control
measure_name: IC50 (nM)
Please respond with the number in nM and leave the unit unwritten.

Need IC50 of Cc1ccc(-n2c(-c3ccccc3)nc3ccc(OCCCCCC(=O)OC(C)C)cc32)cc1 , thanks. 750

Data origin, for the record: patent US7115645B2
